- test_target: mTOR (Homo sapiens, UniProt P42345)
- Construct: FLAG; made in house
- Sequence (P42345 1362-2549): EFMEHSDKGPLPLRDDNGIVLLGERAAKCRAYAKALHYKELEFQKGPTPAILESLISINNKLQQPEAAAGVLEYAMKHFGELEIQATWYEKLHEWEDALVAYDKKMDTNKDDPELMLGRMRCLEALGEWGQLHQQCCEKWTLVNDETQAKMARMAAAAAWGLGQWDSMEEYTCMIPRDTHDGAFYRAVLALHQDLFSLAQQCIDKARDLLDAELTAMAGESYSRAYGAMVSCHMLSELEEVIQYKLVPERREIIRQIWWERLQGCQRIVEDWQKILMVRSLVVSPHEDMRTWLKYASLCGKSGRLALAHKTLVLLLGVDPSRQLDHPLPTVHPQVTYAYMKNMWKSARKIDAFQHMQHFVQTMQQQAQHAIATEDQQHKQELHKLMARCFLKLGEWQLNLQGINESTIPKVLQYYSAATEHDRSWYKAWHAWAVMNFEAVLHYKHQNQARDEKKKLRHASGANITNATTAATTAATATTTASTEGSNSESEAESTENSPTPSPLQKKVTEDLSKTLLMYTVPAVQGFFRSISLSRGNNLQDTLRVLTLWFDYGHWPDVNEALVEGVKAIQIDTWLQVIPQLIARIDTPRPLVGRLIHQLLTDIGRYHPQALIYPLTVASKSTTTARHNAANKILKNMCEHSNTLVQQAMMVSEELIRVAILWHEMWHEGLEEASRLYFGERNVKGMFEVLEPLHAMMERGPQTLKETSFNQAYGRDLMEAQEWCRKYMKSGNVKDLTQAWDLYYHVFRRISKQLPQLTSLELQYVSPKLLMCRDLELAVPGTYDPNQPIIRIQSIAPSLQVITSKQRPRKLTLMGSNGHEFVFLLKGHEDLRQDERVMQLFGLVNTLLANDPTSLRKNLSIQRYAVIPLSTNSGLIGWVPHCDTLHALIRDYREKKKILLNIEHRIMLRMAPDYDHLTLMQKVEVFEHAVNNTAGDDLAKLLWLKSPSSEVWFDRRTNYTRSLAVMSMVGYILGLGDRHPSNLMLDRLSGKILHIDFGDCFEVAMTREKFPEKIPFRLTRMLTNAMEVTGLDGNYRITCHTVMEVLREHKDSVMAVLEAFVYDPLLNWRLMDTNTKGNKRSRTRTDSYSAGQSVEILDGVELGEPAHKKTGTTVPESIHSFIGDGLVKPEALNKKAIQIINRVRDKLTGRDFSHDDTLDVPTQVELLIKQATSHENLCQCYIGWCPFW
- run_description: In Vitro mTOR Kinase Assay (Echo), Test (a)(ii)
- Type: biochemical
- conditions_used: table of enzyme assay Test (a)(ii); read-out: Test (a)(ii) IC50
- From the text: (a)(ii) In Vitro mTOR Kinase Assay (Echo) The assay used AlphaScreen technology (Gray et al., Analytical Biochemistry, 2003, 313: 234-245) to determine the ability of test compounds to inhibit phosphorylation by recombinant mTOR. A C-terminal truncation of mTOR encompassing amino acid residues 1362 to 2549 of mTOR (EMBL Accession No. L34075) was stably expressed as a FLAG-tagged fusion in HEK293 cells as described by Vilella-Bach et al., Journal of Biochemistry, 1999, 274, 4266-4272. […]
The following compounds are listed with their measured pIC50 values.
Quick note: pIC50 values are minus log10 of concentrations in mol/L.

- CN(C)CCNC(=O)Nc1ccc(-c2nc(N3CCOCC3)cc(C3(S(=O)(=O)C4CC4)CCC3)n2)cc1 [Example 13t]: 6.76
- CCNC(=S)Nc1ccc(-c2nc(N3CCOC[C@@H]3C)cc(C3(S(=O)(=O)CCCO)CCC3)n2)cc1 [Example 99e]: 7.50
- C[C@H]1COCCN1c1cc(C2(S(=O)(=O)CCCO)CCCC2)nc(-c2ccc(NC(=O)NC3CC3)cc2)n1 [Example 43f]: 7.41
- O=C(Nc1ccc(-c2nc(N3CCOCC3)cc(C3(S(=O)(=O)c4ccccc4)CC3)n2)cc1)Nc1ncns1 [Example 36di]: 8.03
- C[C@H]1COCCN1c1cc(C2(S(C)(=O)=O)CC2)nc(-c2ccc(NC(=S)Nc3cnn(C)c3)cc2)n1 [Example 37o]: 7.48
- Cc1nc(S(=O)(=O)C2(c3cc(N4CCOC[C@@H]4C)nc(-c4ccc(NC(=O)NCC(F)F)cc4)n3)CC2)sc1C: 7.71

The compound C[C@H]1COCCN1c1cc(C2(S(=O)(=O)C3CC3)CC2)nc(-c2ccc(NC(=O)NCC(F)F)cc2)n1 [Example 64u] , when measured on mTOR (Homo sapiens, UniProt P42345), yielded pIC50 of 7.86

The compound CN1CCN(C(=O)C2(c3cc(N4CCOCC4)nc(-c4ccc(NC(=O)NC5CC5)cc4)n3)CC2)CC1 [Example 33d] , when measured on mTOR (Homo sapiens, UniProt P42345), yielded pIC50 of 6.88

The compound CCS(=O)(=O)C1(c2cc(N3CCOC[C@@H]3C)nc(-c3ccc(NC(=O)NC)cc3)n2)CCC1 [Example 87c] , when measured on mTOR (Homo sapiens, UniProt P42345), yielded pIC50 of 8.11

The compound Cc1nc(S(=O)(=O)C2(c3cc(N4CCOC[C@@H]4C)nc(-c4ccc(NC(=O)NCCF)cc4)n3)CC2)sc1C [Example 80a] , when measured on mTOR (Homo sapiens, UniProt P42345), yielded pIC50 of 7.84

The compound Cc1csc(S(=O)(=O)C2(c3cc(N4CCOCC4)nc(-c4ccc(NC(=O)NCCC#N)cc4)n3)CC2)n1 [Example 42f] , when measured on mTOR (Homo sapiens, UniProt P42345), yielded pIC50 of 8.58

The compound CCCNC(=O)Nc1ccc(-c2nc(N3CCOC[C@@H]3C)cc(C3(S(=O)(=O)C(C)(C)C)CC3)n2)cc1 [Example 18h] , when measured on mTOR (Homo sapiens, UniProt P42345), yielded pIC50 of 8.18

The compound O=C(NCCCO)Nc1ccc(-c2nc(N3CCOCC3)cc(C3(S(=O)(=O)c4ccncc4)CC3)n2)cc1 [Example 36ax] , when measured on mTOR (Homo sapiens, UniProt P42345), yielded pIC50 of 7.68

The compound C[C@H]1COCCN1c1cc(C2(S(=O)(=O)CCCO)CC2)nc(-c2ccc(NC(=O)Nc3ncns3)cc2)n1 [Example 36b] , when measured on mTOR (Homo sapiens, UniProt P42345), yielded pIC50 of 8.75
